biological target: GST-tagged truncated human mutant G2019S LRRK2 (Homo sapiens, UniProt Q5S007, G2019S); construct: GST-tagged truncated human mutant G2019S LRRK2; purchased Life Technologies Corporation (Carlsbad, CA); experiment: LRRK2 G2019S Km ATP LanthaScreen assay; assay type: biochemical; conditions: 134 μM ATP (Km ATP), LRRKtide substrate, mean of several tests, read-out: LRRK2 pIC50 (converted)
Sequence (Q5S007 970-2527 G2019S limits assumed): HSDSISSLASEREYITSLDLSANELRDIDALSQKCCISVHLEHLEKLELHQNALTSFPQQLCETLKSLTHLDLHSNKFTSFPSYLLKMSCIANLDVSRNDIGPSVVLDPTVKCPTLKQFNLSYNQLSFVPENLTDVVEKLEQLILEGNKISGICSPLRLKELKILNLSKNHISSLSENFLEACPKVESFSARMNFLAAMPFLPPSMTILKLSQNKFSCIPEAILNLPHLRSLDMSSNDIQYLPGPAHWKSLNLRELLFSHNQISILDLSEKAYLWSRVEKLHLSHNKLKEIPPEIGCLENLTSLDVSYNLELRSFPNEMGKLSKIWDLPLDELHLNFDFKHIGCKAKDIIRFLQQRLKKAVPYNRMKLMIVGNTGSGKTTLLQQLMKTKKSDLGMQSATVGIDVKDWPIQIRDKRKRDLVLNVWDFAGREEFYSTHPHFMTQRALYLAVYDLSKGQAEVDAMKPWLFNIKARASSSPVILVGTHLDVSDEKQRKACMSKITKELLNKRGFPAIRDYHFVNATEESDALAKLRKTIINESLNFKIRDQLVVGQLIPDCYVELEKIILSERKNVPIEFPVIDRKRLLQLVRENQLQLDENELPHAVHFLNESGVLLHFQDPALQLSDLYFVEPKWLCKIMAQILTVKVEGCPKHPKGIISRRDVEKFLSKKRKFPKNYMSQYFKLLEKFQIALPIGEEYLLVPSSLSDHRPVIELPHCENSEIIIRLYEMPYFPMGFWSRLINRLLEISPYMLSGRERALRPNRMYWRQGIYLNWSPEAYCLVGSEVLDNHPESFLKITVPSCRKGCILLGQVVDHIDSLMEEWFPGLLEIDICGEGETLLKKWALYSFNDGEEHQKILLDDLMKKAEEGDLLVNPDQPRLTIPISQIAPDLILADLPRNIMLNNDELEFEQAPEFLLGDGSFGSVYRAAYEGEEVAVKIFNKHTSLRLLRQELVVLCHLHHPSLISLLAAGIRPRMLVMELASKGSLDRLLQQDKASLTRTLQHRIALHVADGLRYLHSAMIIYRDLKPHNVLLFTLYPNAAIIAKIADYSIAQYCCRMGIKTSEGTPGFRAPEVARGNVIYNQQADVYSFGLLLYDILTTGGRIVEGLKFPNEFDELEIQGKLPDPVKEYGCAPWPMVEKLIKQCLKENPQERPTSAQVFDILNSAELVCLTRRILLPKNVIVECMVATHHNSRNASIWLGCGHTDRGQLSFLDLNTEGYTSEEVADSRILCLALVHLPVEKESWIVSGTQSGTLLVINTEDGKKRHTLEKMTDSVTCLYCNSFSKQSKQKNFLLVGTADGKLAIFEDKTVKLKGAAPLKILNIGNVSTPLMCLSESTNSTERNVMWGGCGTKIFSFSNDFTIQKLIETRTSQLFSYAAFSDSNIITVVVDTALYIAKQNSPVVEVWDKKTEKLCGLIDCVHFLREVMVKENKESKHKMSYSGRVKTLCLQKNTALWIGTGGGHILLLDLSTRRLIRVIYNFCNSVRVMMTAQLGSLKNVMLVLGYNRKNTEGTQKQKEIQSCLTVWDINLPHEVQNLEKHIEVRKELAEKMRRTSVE
The following compounds are listed with their measured log10 IC50 values.
Use the decimal logarithm of IC50 (nM).

CC1(N2CCN(c3cc4cc(NC(=O)C5CCC(F)(F)CO5)ncc4cc3Cl)CC2)COCC1O (single isomer, unassigned) [Ex-10.1] | -0.03
CCOC1CC2(C1)CC2C(=O)Nc1cc2cc(N3CCN(C4(C)COCC4F)CC3)c(Cl)cc2cn1 (single isomer, unassigned) [Ex-10.24] | -1.09

(Q) Look up log10 IC50 for this compound: Cc1cc2cnc(NC(=O)C3C4CCOCC43)cc2cc1N1CCN(C2(C)CCOC2)CC1 (single isomer, unassigned) [Ex-10.45]
(A) -0.84

(Q) Look up log10 IC50 for this compound: CCC1C(C(=O)Nc2cc3cc(N4CCN(C5(C)COCC5F)CC4)c(C)cc3cn2)C1c1cnn(C)c1 (stereo not drawn)
(A) -1.09

(Q) Look up log10 IC50 for this compound: CC1(N2CCN(c3cc4cc(NC(=O)C5CC56CC6(F)F)ncc4cc3Cl)CC2)COCC1O (single isomer, unassigned) [Ex-3.1]
(A) -0.01

(Q) Look up log10 IC50 for this compound: CC1(C)CC(C(=O)Nc2cc3cc(N4CCN(C5(C)COCC5O)CC4)c(Cl)cc3cn2)CO1 (single isomer, unassigned) [Ex-1.21]
(A) 0.24

Origin of measurements: patent US12516039B2
